Protocol text: Bioavailability in rat at 1 mg/kg, po
Format: ADME, organism-based
Test context: in vivo
Parameter: bioavailability (%)
The answer is to be given in %; state only the numeric part.

What bioavailability value was documented for this molecule, O=C(c1ccccc1N1Cn2c(ccc2-c2ccccc2)C1=O)N1CCCCC1 ? 1

---

Target entity: Cytochrome P450 3A4 (Homo sapiens)
Sequence (P08684 whole entry): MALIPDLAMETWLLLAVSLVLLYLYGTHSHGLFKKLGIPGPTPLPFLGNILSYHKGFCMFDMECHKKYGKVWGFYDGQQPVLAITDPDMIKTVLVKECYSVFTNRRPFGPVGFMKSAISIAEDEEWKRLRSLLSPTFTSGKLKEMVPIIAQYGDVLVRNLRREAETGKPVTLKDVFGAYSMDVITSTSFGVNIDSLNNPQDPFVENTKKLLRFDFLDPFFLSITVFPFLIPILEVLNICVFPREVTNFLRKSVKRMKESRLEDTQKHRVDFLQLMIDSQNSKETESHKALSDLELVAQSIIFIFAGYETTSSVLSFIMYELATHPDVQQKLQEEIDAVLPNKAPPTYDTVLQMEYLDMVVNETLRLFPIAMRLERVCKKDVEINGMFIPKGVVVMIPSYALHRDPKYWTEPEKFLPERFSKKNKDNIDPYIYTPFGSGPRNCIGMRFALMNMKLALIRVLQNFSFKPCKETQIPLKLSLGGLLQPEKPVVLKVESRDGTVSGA
Parameter: IC50

Give the reported IC50 for O=C(c1ccccc1N1Cn2c(ccc2-c2ccccc2)C1=O)N1CCCCC1 (system: Cytochrome P450 3A4 (Homo sapiens)). > 5 µM
